- System: c-Src;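 further: 11-residue human phosphosite peptides and single-mutation variants displayed on the E. coli surface, counted by deep sequencing, each peptide's frequency after selection divided by its frequency in the unselected input library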;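 further: frequency after pTyr selection over input frequency; kinase dosed for 20-30% of maximal phosphorylation in three min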
- assay summary: phosphorylation enrichment, bacterial display (enrichment ratio); higher = better substrate or ligand; peptides without Tyr show the background
Entries annotated with measured phosphorylation enrichment
API doc: respond with a numeric literal and nothing else, no unit.

Examples with answers:
polymer sequence	phosphorylation enrichment
TWNPKYTLRSH [STRN3_Y474]	0.348
NNDLCYWVLEL [IARS1_Y434_P437L]	5.34
KWRGQYDVAIR [BTK_Y425_K430R]	0.389
PSPMPYACCQM [FOXL2_Y215_S217C]	1.02
FPPDGYSRHFE [CTNND1_Y213_YF]	0.472
KIKGRYEKCEP [KRT26_Y119_W118R]	0.579
MFRVQYNSSVD [LRFN1_Y458_Q455R_YF]	0.386
SASRSYSRSRS [SRRM4_Y549]	0.588

Tested on c-Src: NFNPNYCFAGK [ALK_Y1096_D1091N_YF] . Observed phosphorylation enrichment: 0.472

Tested on c-Src: EDGCIYPATIA [SMN1_Y109] . Observed phosphorylation enrichment: 0.539

Tested on c-Src: AYGNLYGSRKQ [YIPF7_Y59] . Observed phosphorylation enrichment: 2.08

Tested on c-Src: NQILPYIEELV [PPP2R1B_Y341_K343E] . Observed phosphorylation enrichment: 0.507

Tested on c-Src: SEDSEYFKAFE [CASQ2_Y178_YF] . Observed phosphorylation enrichment: 0.651

Tested on c-Src: FSQETYYRVSN [ABCD1_Y180_Q178E] . Observed phosphorylation enrichment: 4.41
